Experiment: percentages of bound serum by ultrafiltration and dialysis
Format: in vitro ADME
Settings: ultrafiltration, read-out: percentage of bound serum (converted)

>  <molecule>
CC(=O)OCC1=C(C(=O)O)N2C(=O)C(NC(=O)Cc3cc(C)no3)C2SC1 (centres unmarked) [Example XXII]

>  <fraction unbound>
0.67

$$$$

====

System: Diplococcus pneumoniae L 54
Assay: MIC, agar serial dilution test
Format: cell-based
Details: Streptococcus pneumoniae, L54; Diplococcus pneumoniae L 54; 24 hours at 37° C; read-out: MIC
value_kind: log10(MIC) (log10 of the value in µg/mL)

>  <compound>
CC1(C)SC2C(NC(=O)Cc3onc(-c4c(Cl)cccc4Cl)c3C(N)=O)C(=O)N2C1C(=O)O (stereo not shown)

>  <log10(MIC)>
0.78

$$$$
>  <compound>
CC(=O)OCC1=C(C(=O)O)N2C(=O)C(NC(=O)Cc3onc(-c4c(C)cc(C)cc4C)c3C)C2SC1 (stereo not shown)

>  <log10(MIC)>
-1.22

$$$$
>  <compound>
CC1(C)SC2C(NC(=O)C(NC(=O)OCc3ccc([N+](=O)[O-])cc3)c3cc(-c4c(Cl)cccc4Cl)no3)C(=O)N2C1C(=O)O (stereo not shown)

>  <log10(MIC)>
-0.30

$$$$
>  <compound>
CCOc1ccc2ccccc2c1C(=O)N[C@@H]1C(=O)N2[C@@H]1SC(C)(C)[C@@H]2C(=O)O [Nafcilline, Nafcillin, reference compound]

>  <log10(MIC)>
-1.22

$$$$
>  <compound>
CC1(C)SC2C(NC(=O)Cc3onc(-c4c(Cl)cccc4Cl)c3C#N)C(=O)N2C1C(=O)O (stereo not shown)

>  <log10(MIC)>
-1.52

$$$$
>  <compound>
CC1(C)SC2C(NC(=O)C(N)c3cc(-c4c(Cl)cccc4Cl)no3)C(=O)N2C1C(=O)O (stereo not shown)

>  <log10(MIC)>
-0.92

$$$$
>  <compound>
CC(=O)OCC1=C(C(=O)O)N2C(=O)C(NC(=O)Cc3cc(C(C)(C)C)no3)C2SC1 (stereo not shown)

>  <log10(MIC)>
-0.60

$$$$
